SHP-1 recruitment blocking, TOP blocking (%) for assorted binders
measurement target: full length human SIRPα v1 with a small beta-gal fragment (ED) fused to its C-terminal, expressed in K562 … (human, UniProt P78324 31-504)
Sequence (P78324 31-504): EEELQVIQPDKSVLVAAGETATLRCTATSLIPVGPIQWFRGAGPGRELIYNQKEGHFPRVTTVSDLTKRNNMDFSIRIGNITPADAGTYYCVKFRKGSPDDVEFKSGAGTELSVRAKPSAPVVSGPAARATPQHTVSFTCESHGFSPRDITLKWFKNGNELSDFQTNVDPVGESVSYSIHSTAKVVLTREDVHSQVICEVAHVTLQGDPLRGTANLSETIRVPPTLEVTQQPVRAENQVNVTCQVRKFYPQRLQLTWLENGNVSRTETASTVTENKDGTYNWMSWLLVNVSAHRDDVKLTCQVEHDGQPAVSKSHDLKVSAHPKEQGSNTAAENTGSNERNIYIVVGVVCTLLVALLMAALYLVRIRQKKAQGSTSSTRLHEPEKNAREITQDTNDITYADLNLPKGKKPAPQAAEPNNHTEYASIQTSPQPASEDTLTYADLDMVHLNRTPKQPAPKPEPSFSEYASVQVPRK
test details: cell-based or functional assay
Response body: numeric value in %, unit text excluded.

[in] Could you tell me which SHP-1 recruitment blocking, TOP blocking (%) is on file for 059c (antibody, V domains shown, also called chimeric antibody 059c) VH: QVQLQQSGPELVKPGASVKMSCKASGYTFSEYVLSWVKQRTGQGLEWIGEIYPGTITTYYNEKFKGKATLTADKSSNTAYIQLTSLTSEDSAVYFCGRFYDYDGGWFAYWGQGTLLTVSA VL: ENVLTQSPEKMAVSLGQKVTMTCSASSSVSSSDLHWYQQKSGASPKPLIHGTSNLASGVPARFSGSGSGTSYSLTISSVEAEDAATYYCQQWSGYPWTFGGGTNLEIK ?
[out] 66.9

[in] Entry to check: hu1H9G4 (antibody, V domains shown) VH: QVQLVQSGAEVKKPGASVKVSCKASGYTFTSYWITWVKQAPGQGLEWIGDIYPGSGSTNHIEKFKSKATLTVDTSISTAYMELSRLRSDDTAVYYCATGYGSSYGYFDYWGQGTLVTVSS VL: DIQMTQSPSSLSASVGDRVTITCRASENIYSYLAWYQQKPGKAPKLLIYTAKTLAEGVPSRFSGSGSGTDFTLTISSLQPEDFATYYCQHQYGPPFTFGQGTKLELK
[out] 59.5

[in] And what about the binder 042c (antibody, V domains shown, also called chimeric antibody 042c) VH: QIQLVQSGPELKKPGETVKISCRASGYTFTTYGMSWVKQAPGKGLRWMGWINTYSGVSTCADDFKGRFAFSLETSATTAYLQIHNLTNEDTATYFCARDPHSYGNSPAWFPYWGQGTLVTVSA VL: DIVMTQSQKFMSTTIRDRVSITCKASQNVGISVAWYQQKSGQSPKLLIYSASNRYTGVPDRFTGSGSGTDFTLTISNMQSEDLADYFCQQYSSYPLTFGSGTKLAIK ?
[out] 70

[in] # iterate: 005c (antibody, V domains shown, also called chimeric antibody 005c) VH: EVKLVESGGGLVQPGGSLSLSCAASGFTFTDYYMSWVRQPPGKALEWLGFIKNEANGYTTESSASVKGRFTISRDNSQSILYLQMNALRAEDSATYYCARYDYYGSNYNWYFDAWGTGTTVTVSS VL: DIVMTQSQKFMSPSVGDRVSITCKASQNVRTAVAWYQQKPGQSPKVLIHLASKRHTGVPDRFTGSGSGTDFTLTISNVQSEDLADYFCLQHWIHPLTFGAGTKLELK
[out] 76.4

[in] And for 015c (antibody, V domains shown, also called chimeric antibody 015c) VH: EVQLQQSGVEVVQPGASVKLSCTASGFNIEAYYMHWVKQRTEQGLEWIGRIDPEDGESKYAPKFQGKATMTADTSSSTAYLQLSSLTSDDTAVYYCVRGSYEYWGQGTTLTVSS VL: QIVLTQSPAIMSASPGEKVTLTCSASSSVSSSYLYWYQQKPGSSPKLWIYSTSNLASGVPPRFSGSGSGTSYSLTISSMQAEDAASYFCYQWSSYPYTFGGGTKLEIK ?
[out] 73.5

[in] Note, next up: 071c (antibody, V domains shown, also called chimeric antibody 071c) VH: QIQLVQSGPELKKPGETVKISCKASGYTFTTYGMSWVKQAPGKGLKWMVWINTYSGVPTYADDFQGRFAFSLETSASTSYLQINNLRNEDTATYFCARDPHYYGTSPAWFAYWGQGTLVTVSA VL: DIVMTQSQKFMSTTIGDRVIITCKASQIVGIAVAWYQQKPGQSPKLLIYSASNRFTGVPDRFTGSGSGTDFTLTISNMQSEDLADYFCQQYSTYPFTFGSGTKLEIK
[out] 44.5

[in] Also 073c (antibody, V domains shown, also called chimeric antibody 073c) VH: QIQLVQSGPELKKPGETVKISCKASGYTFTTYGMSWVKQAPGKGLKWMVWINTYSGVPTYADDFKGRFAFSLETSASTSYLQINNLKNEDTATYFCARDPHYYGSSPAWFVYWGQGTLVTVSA VL: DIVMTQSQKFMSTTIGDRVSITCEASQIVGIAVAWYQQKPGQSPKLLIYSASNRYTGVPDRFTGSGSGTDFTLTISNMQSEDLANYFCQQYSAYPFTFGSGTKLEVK , if possible.
[out] 51.2

[in] Quick one: 025c (antibody, V domains shown, also called chimeric antibody 025c; parental antibody of 025c) VH: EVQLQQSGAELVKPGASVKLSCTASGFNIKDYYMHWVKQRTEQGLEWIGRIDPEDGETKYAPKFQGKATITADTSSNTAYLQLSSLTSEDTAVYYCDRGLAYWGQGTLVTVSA VL: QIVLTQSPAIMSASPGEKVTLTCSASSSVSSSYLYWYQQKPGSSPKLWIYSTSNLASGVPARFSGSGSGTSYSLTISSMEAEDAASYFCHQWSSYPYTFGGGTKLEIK
[out] 84.5
